Source: patent US20240034757A1

- systemTested: T1, CXCL10_HUMAN (human, UniProt P02778 22-98)
- T1 sequence: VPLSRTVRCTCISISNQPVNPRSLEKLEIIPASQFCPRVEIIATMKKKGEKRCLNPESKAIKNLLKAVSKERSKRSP
- assayProcedure: yeast surface display FACS re-test; further: test concentration or dose not given here
Exercise: for every item that follows, state its recorded % cells over threshold fluorescence.
Give bare numbers, in %.

P1074_IXORI (other) GSKESSAHQSSDDSIKAEFCDAKCTMKTDGKWTQCHGGCFCVHVGNETEGRCMRLDGDYDYPSTQPEE
71
P1142_AMBCA (other) KPQILQRTDHSTDSDWDPQMCPETCNPSKNISCSSECLCVTLGGGDETGTCFNMSGVDWLGHAQASDGHNDG
80

For each of the items listed, what is its % cells over threshold fluorescence?
1. P1101_IXORI (other) HTTVAGSDEDIEVSYCGMNCTVESGKSSKCSPDCVCVHEGNERDGICISITYLGDLGNPLEDPSIDLATPLAPVFQSSK
2. P1086_IXORI (other) GSKGQRASQVSETSITAEFCDTSCTQGTDKTWSGCSGDCFCVHVGNDTEGRCMRWDGDYPSAEEEE
3. P1080_IXORI (other) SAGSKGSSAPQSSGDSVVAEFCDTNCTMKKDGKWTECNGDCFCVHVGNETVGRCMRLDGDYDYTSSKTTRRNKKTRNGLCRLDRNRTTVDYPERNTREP
4. P1126_AMBCA (other) KPQILQRTDKSTDSEWDPQTCPETCIPSKNITCSDGCVCVKLGEEEEGTCFNMTGVDWLGSPSDD

[75, 63, 70, 66]
